biological target: human PPARdelta (Homo sapiens, UniProt Q03181); construct: human PPARdelta receptor (amino acids S139-Y441); plasmid pcDNA3; assay: Cellular PPARdelta assay (HEK reporter cell line, luciferase); conditions: PPARdelta reporter cell line (HEK, GR-GAL4-humanPPARdelta-LBD)
Sequence (Q03181 139-441): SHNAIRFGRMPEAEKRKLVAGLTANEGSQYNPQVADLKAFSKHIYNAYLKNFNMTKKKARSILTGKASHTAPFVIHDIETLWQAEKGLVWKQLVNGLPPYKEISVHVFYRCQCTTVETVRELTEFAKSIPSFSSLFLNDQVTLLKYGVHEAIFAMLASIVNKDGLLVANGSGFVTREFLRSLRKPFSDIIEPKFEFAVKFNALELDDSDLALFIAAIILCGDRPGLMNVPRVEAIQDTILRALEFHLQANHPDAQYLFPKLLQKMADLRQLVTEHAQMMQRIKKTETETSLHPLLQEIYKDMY
Parameter Measured: EC50 (nM)
Answer format: numeric, nM implied, no suffix.

CC1(C)Cc2cc(-c3ccc(C(F)(F)F)cc3)ccc2N(c2ccc(-c3noc(=O)[nH]3)c(Cl)c2)C1 [Example 5] = 1.9
O=c1[nH]c(-c2ccc(S(=O)(=O)N3CCNCc4cc(-c5ccc(C(F)(F)F)cc5)ccc43)cc2Cl)no1 [Example 12] = 530

Req: Which EC50 value belongs to O=c1[nH]c(-c2ccc(S(=O)(=O)N3CCCc4nc(-c5ccc(C(F)(F)F)cc5)ccc43)cc2Cl)no1 [Example 13] ?
Resp: 0.4

---

target: human PPARalpha (Homo sapiens); construct: human PPARalpha receptor (amino acids S167-Y468); plasmid pcDNA3; test: Cellular PPARalpha assay (HEK reporter cell line, luciferase); conditions: PPARalpha reporter cell line (HEK, GR-GAL4-humanPPARalpha-LBD)
Sequence (Q07869 167-468): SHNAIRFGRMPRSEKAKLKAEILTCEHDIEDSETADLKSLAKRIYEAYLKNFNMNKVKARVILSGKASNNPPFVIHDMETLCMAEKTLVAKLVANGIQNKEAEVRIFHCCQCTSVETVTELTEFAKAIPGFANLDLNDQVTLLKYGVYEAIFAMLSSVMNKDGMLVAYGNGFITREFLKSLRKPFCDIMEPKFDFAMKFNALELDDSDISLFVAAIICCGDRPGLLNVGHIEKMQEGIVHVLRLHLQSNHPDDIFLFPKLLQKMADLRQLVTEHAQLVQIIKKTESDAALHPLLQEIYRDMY
Parameter Measured: pEC50
Would you please state pEC50, meaning minus log10 of the concentration in mol/L, as a bare number?

Req: Which pEC50 value belongs to O=c1[nH]c(-c2ccc(S(=O)(=O)N3CCCc4nc(-c5ccc(C(F)(F)F)cc5)ccc43)cc2Cl)no1 [Example 13] ?
Resp: 6.30
